test system: Fibroblast; assay: Multiplex assay against human fibroblast; type: toxicity, cell-based; conditions: 24 h, 10 µM, compound concentration 10 uM, replicate 1
ATTRIBUTE_MEASURED: Population Membrane Permeable-Phenotype (%)
Reply numerically in %, unit not repeated.

Query: # input compound: O=c1ccc2ccc(OCCCCN3CCN(c4cccc5sccc45)CC3)cc2[nH]1 ; wanted: its Population Membrane Permeable-Phenotype (%)
Result: 0

Query: # input compound: CN1C[C@H](C(=O)N[C@]2(C)O[C@@]3(O)[C@@H]4CCCN4C(=O)[C@H](Cc4ccccc4)N3C2=O)C[C@@H]2c3cccc4[nH]cc(c34)C[C@H]21.CS(=O)(=O)O [DIHYDROERGOTAMINE MESYLATE] ; wanted: its Population Membrane Permeable-Phenotype (%)
Result: 0

Query: # input compound: CCCCCCNC(=O)Nc1ccc(S(=O)(=O)Nc2ccc(CCNC[C@H](O)COc3ccc(O)cc3)cc2)cc1 ; wanted: its Population Membrane Permeable-Phenotype (%)
Result: 0

====

test system: Fibroblast; assay: Multiplex assay against human fibroblast; assay type: toxicity, cell-based; settings: 48 h, 10 µM, compound concentration 10 uM, replicate 2
Non-standard residues stand in square brackets, D forms with d. Residues, ends and D or L forms follow the SMILES beside them.
ATTRIBUTE_MEASURED: Population Fragmented Nuclei (%)
Reply numerically in %, unit not repeated.

Query: # input molecule: COCCn1c(C)c(C)s/c1=N\C(=O)C1C(C)(C)C1(C)C ; wanted: its Population Fragmented Nuclei (%)
Result: 49

Query: # input molecule: CC(C)C[C@@H]1NC(=O)[C@@H](C(C)C)NC(=O)[C@@H]2CCCN2C(=O)[C@@H](CC(=O)O)NC(=O)[C@@H](Cc2c[nH]c3ccccc23)NC1=O [BQ-123] (cyclo(L[dW][dD]P[dV])) ; wanted: its Population Fragmented Nuclei (%)
Result: 45

Query: # input molecule: CN(C)C/C=C/C(=O)Nc1ccc(C(=O)N2CCCC(Nc3ncc(Cl)c(-c4c[nH]c5ccccc45)n3)C2)cc1 (centres undefined) ; wanted: its Population Fragmented Nuclei (%)
Result: 27

Query: # input molecule: Cc1c(Cc2ccc3ccccc3n2)c2cc(F)ccc2n1CC(=O)O ; wanted: its Population Fragmented Nuclei (%)
Result: 30

====

test system: Fibroblast; assay: Multiplex assay against human fibroblast; type: toxicity, cell-based; conditions: 24 h, 10 µM, compound concentration 10 uM, replicate 2
Non-standard residues stand in square brackets, D forms with d. Residues, ends and D or L forms follow the SMILES beside them.
ATTRIBUTE_MEASURED: Population Hoechst High Intensity Objects (%)
Reply numerically in %, unit not repeated.

Query: # input compound: COc1cc2nc(N3CCN(C(=O)c4ccco4)CC3)nc(N)c2cc1OC.Cl [PRAZOSIN HYDROCHLORIDE] ; wanted: its Population Hoechst High Intensity Objects (%)
Result: 7

Query: # input compound: Cc1cc(=O)n(C)c2cc(N3C(=O)CC[C@H](NS(=O)(=O)CC(C)C)[C@H]3c3ccc(Cl)cc3)ccc12 ; wanted: its Population Hoechst High Intensity Objects (%)
Result: 8

Query: # input compound: COCCn1c(C)c(C)s/c1=N\C(=O)C1C(C)(C)C1(C)C ; wanted: its Population Hoechst High Intensity Objects (%)
Result: 3

Query: # input compound: CCc1nn2c(C)cc(C)nc2c1Cc1ccc(-c2nnc(C3CCNCC3)o2)cc1 ; wanted: its Population Hoechst High Intensity Objects (%)
Result: 3

Query: # input compound: CC(C)(O)C(=O)N1CCN(c2ccc(C(F)(F)F)c(C3=C(c4c[nH]c5ccccc45)C(=O)NC3=O)c2)CC1 ; wanted: its Population Hoechst High Intensity Objects (%)
Result: 3

Query: # input compound: CCn1c(-c2nc3cc(C(=O)N4CCCC(N)C4)ccc3n2C)cc2ccccc21.Cl (centres undefined) ; wanted: its Population Hoechst High Intensity Objects (%)
Result: 4

Query: # input compound: S=C(NCCCc1c[nH]cn1)NCCCN(Cc1ccc(Cl)c(Cl)c1)c1ccc(Br)cn1 ; wanted: its Population Hoechst High Intensity Objects (%)
Result: 4

Query: # input compound: COc1ccc2[nH]c(I)c(CCNC(C)=O)c2c1 ; wanted: its Population Hoechst High Intensity Objects (%)
Result: 4

Query: # input compound: Cl.Cl.OCCOCCN1CCN(C(c2ccccc2)c2ccc(Cl)cc2)CC1 (centres undefined) [HYDROXYZINE HYDROCHLORIDE] ; wanted: its Population Hoechst High Intensity Objects (%)
Result: 9

Query: # input compound: Cc1cc(NC(=O)NCCN2CCC(O)(Cc3ccccc3)CC2)c2ccccc2n1 ; wanted: its Population Hoechst High Intensity Objects (%)
Result: 3

Query: # input compound: CN1C[C@H](C(=O)N[C@]2(C)O[C@@]3(O)[C@@H]4CCCN4C(=O)[C@H](Cc4ccccc4)N3C2=O)C[C@@H]2c3cccc4[nH]cc(c34)C[C@H]21.CS(=O)(=O)O [DIHYDROERGOTAMINE MESYLATE] ; wanted: its Population Hoechst High Intensity Objects (%)
Result: 5

Query: # input compound: C[C@H](NC(=O)CNC(=O)c1cccc(Cl)c1)c1ccccc1 ; wanted: its Population Hoechst High Intensity Objects (%)
Result: 5

Query: # input compound: CC(C)C[C@@H]1NC(=O)[C@@H](C(C)C)NC(=O)[C@@H]2CCCN2C(=O)[C@@H](CC(=O)O)NC(=O)[C@@H](Cc2c[nH]c3ccccc23)NC1=O [BQ-123] (cyclo(L[dW][dD]P[dV])) ; wanted: its Population Hoechst High Intensity Objects (%)
Result: 0

Query: # input compound: CN1CCC(C(=O)c2cccc(NC(=O)c3c(F)cc(F)cc3F)n2)CC1 ; wanted: its Population Hoechst High Intensity Objects (%)
Result: 2

Query: # input compound: O=c1ccc2ccc(OCCCCN3CCN(c4cccc5sccc45)CC3)cc2[nH]1 ; wanted: its Population Hoechst High Intensity Objects (%)
Result: 19

Query: # input compound: COCCCN1CCC(NC(=O)c2cc(Cl)c(N)c3c2OCC3)CC1 [PRUCALOPRIDE] ; wanted: its Population Hoechst High Intensity Objects (%)
Result: 5

Query: # input compound: OCCCNc1cc(-c2ccnc(Nc3cccc(Cl)c3)n2)ccn1 ; wanted: its Population Hoechst High Intensity Objects (%)
Result: 6

Query: # input compound: CCCCC[C@H](O)/C=C/[C@H]1[C@H](O)CC(=O)[C@@H]1CCCCCCC(=O)O ; wanted: its Population Hoechst High Intensity Objects (%)
Result: 13

Query: # input compound: C[C@@H]1CC(=O)Nc2cccc(-c3ccc4c(c3)c(-c3cnn(C)c3)nn4C)c2N1 ; wanted: its Population Hoechst High Intensity Objects (%)
Result: 5

Query: # input compound: CN(C)C(=O)Cn1cc(-c2ccc(-c3nnc4ccccn34)cc2)cn1 ; wanted: its Population Hoechst High Intensity Objects (%)
Result: 9

Query: # input compound: O=C(Nc1cc(-c2ccccc2)nn1-c1ccccc1F)c1ccc([N+](=O)[O-])cc1 ; wanted: its Population Hoechst High Intensity Objects (%)
Result: 6

Query: # input compound: CC(C)C[C@H](CO)Nc1nc(S[C@@H](C)c2ccccc2)nc2nc(N)sc12 ; wanted: its Population Hoechst High Intensity Objects (%)
Result: 2

Query: # input compound: O=C(O)CCC/C=C\CC1C(O)CC(O)C1/C=C/C(O)COc1cccc(Cl)c1 (centres undefined) ; wanted: its Population Hoechst High Intensity Objects (%)
Result: 3

Query: # input compound: COc1cc(C(=O)N2CC[C@@H](O)[C@@H](N)C2)cc2nc(-c3cc4ccccc4n3CC3CC3)n(C)c12.Cl ; wanted: its Population Hoechst High Intensity Objects (%)
Result: 5

Query: # input compound: Cc1ccc(OCC(O)C(C)NC(C)C)c2c1CCC2.Cl (centres undefined) ; wanted: its Population Hoechst High Intensity Objects (%)
Result: 5

Query: # input compound: CSc1nc(NC2CCCC2)c([N+](=O)[O-])c(NC2CCCC2)n1 ; wanted: its Population Hoechst High Intensity Objects (%)
Result: 7

Query: # input compound: Nc1nc(CC(=O)Nc2ccc(CCNC[C@H](O)c3ccccc3)cc2)cs1 ; wanted: its Population Hoechst High Intensity Objects (%)
Result: 4

Query: # input compound: Cn1cc(C(=O)OCC2CCN(CCNS(C)(=O)=O)CC2)c2ccccc21 ; wanted: its Population Hoechst High Intensity Objects (%)
Result: 4

Query: # input compound: COc1cc(Nc2ncc3c(n2)-c2ccc(Cl)cc2C(c2c(F)cccc2OC)=NC3)ccc1C(=O)O ; wanted: its Population Hoechst High Intensity Objects (%)
Result: 5

Query: # input compound: CN(C)C/C=C/C(=O)Nc1ccc(C(=O)N2CCCC(Nc3ncc(Cl)c(-c4c[nH]c5ccccc45)n3)C2)cc1 (centres undefined) ; wanted: its Population Hoechst High Intensity Objects (%)
Result: 6

Query: # input compound: CN1CCN(c2ccc(Nc3c4ccccc4nc4ccccc34)cc2)CC1.Cl.Cl.O ; wanted: its Population Hoechst High Intensity Objects (%)
Result: 21

Query: # input compound: Cc1nn(C)c2nc(NNC(=O)Nc3cc(Cl)nc(Cl)c3)cc(C(C)C)c12 ; wanted: its Population Hoechst High Intensity Objects (%)
Result: 8

Query: # input compound: CCCCCCNC(=O)Nc1ccc(S(=O)(=O)Nc2ccc(CCNC[C@H](O)COc3ccc(O)cc3)cc2)cc1 ; wanted: its Population Hoechst High Intensity Objects (%)
Result: 4

Query: # input compound: N[C@](CC1c2ccccc2Oc2ccccc21)(C(=O)O)[C@H]1C[C@@H]1C(=O)O ; wanted: its Population Hoechst High Intensity Objects (%)
Result: 2
